System: KRAS G12V dependent lung adenocarcinoma cell line, NCI-H441
Assay: Cellular pERK (Thr202/Tyr204) FRET/HTRF assay
Assay type: cell-based
Settings: Homo sapiens, NCI-H441, pERK HTRF, NCI-H441 cells (KRAS G12V)
pIC50: −log10 of the molar value.
assay.metric: pIC50

compound	pIC50
[2H]C([2H])(Oc1nc(N2CCO[C@@H]3C[C@@H]32)c2cnc(-c3cc(N)cc4cc(F)c(F)c(C#C)c34)c(F)c2n1)[C@@]12CCCN1C[C@H](F)C2	6.30 to 7.30
[2H]C([2H])(Oc1nc(N2CCC3CC3CC2)c2cnc(-c3cc(N)cc4cc(F)c(F)c(C#C)c34)c(F)c2n1)[C@@]12CCCN1C[C@H](F)C2 (some centres unmarked)	6.30 to 7.30
[2H]C([2H])(Oc1nc(N2CCC[C@@H]3[C@@H](F)[C@@H]32)c2cnc(-c3cc(N)cc4cc(F)c(F)c(C#C)c34)c(F)c2n1)[C@@]12CCCN1C[C@H](F)C2	6.30 to 7.30
[2H]C([2H])(Oc1nc(N2CCCO[C@H]3C[C@H]32)c2c(OC)nc(-c3cc(O)cc4ccc(F)c(C#C)c34)c(F)c2n1)[C@@]12CCCN1C[C@H](F)C2	> 7.30

Here is the next item to consider.
Record `[2H]C([2H])([2H])Oc1c(F)c(F)cc2cc(N)cc(-c3ncc4c(N5CCOC[C@H]6[C@H](F)[C@H]65)nc(OC([2H])([2H])[C@@]56CCCN5C[C@H](F)C6)nc4c3F)c12` . Reported pIC50: > 7.30

The measured values listed here are drawn from patent US20250282799A1.
